# Tested on: HT29 colon
# method-notes: NCI-60 one-dose screen, 48 h (100 = growth as untreated, 0 = no growth, -100 = all killed)
# experimental-context: 10 µM unless noted
This is part of a sample that, as a whole, favours compounds with a hit. Of some 83,000 tested, about 20% had one in any assay.
result-type: growth (%)

INSERT INTO measurements (molecule, test_target, result_type, result_value) VALUES
  ('ClCCN(CCCl)c1ccc(/C=N/Nc2ncnc3nc[nH]c23)cc1', 'HT29 colon', 'growth', 77.5),
  ('O=[N+]([O-])/C=C\c1ccc(Cl)c(Cl)c1', 'HT29 colon', 'growth', -40.4),
  ('NC(=S)c1cn(C2OC(CO)C(O)C2O)c2ncnc(N)c12 (stereo not drawn)', 'HT29 colon', 'growth', 2.78),
  ('CCCCCCCCCCCCCCCCCC1OC[C@@H](COC(=O)O[C@@H](C(=O)O[C@H]2C[C@@]3(O)[C@@H](OC(=O)c4ccccc4)[C@@H]4[C@]5(OC(C)=O)CO[C@@H]5C[C@H](O)[C@@]4(C)C(=O)[C@H](OC(C)=O)C(=C2C)C3(C)C)[C@@H](NC(=O)c2ccccc2)c2ccccc2)O1 (stereo partly drawn)', 'HT29 colon', 'growth', 18.2),
  ('C[C@]12CC[C@@H]3c4ccc(Oc5nc(N6CC6)nc(N6CC6)n5)cc4CC[C@H]3[C@@H]1CCC2=O', 'HT29 colon', 'growth', 19.3),
  ('O=C1OCCC1Br (stereo not drawn)', 'HT29 colon', 'growth', 97.3),
  ('COc1cc(/C=C/[N+](=O)[O-])c([N+](=O)[O-])cc1OC', 'HT29 colon', 'growth', -66),
  ('COC[C@@H]1C[C@@]2(C)[C@@H](CC[C@@H]3[C@@H]2CC[C@@]2(C)[C@H]3CC[C@]2(C)O)CC1=O', 'HT29 colon', 'growth', 83.4);

----------
# Test system: K-562 leukemia
# method-notes: NCI-60 one-dose screen, 48 h
# experimental-context: 10 µM unless noted
About 83,000 compounds went through this panel and 20% of them were active in at least one assay; those are over-represented in the sample as a whole. Activity calls are given as the source filed them. How the source made its calls: active means growth percent below 10; inactive means the rest.
Possible outcomes: yes (active), no (inactive)

INSERT INTO assay_data (molecule, category_label) VALUES
  ('CC[C@H](C)[C@H](NC(=O)NC(C)(C)C)C(=O)N(C)[C@H](C[C@@H](OC(C)=O)c1nc(C(=O)N[C@@H](Cc2ccccc2)C[C@H](C)C(=O)OC)cs1)C(C)C', 'yes'),
  ('C[C@]12CCc3nc(Nc4ccccc4F)sc3C1=CC[C@@H]1[C@@H]2CC[C@]2(C)C(=O)CC[C@@H]12', 'no'),
  ('CC12CC(=O)C3(SC#N)C(CCC4=CC(=O)CCC43C)C1CCC2=O (stereo unspecified)', 'no'),
  ('CCOC(=S)S[C@H]1C[C@@H]2[C@H](CC[C@]3(C)C(=O)CC[C@@H]23)[C@@]2(C)CCC(=O)C=C12', 'no'),
  ('COc1ccc(/C=C\c2cc(OC)c(OC)c(OC)c2)cc1NS(=O)(=O)c1ccc(Cl)cc1', 'no'),
  ('CC(C)CCC(=O)O[C@H]1CC[C@H]2[C@@H]3CCC4=CC(=O)CC[C@]4(C)[C@H]3CC[C@]12C', 'no'),
  ('CC(=O)O[C@H]1CC[C@@]2(C)C(=CC[C@H]3[C@@H]4C[C@@H](N5CC5)[C@H](C(C)=O)[C@@]4(C)CC[C@@H]32)C1', 'no'),
  ('C/C1=C/C(=O)O[C@@H]2C[C@@H](CC[C@H](C)/C=C\C=C\CC1)O[C@@](O)([C@@H]1CSC(=O)N1CO)C2', 'no'),
  ('Cn1cc(-c2csc(-c3cn(CCN4CCOCC4)c4ccccc34)n2)c2cccnc21', 'no'),
  ('CC(=O)O[C@H]1CC[C@H]2[C@@H]3CC=C4c5nc(-c6ccccc6)sc5CC[C@]4(C)[C@H]3CC[C@]12C', 'yes'),
  ('COc1cc([C@@H]2c3cc4c(cc3[C@H](OC(C)=O)[C@H]3COC(=O)[C@@H]23)OCO4)cc(OC)c1OC', 'no'),
  ('CC(=O)[O][Hg][c]1c(N)c(C)cc(C)c1F', 'yes'),
  ('COc1cc(C=Nc2cccc(C(=O)O)c2)ccc1N(CCCl)CCCl', 'no'),
  ('CC1(C)N=C(N)N=C(N)N1c1cccc(CCCCc2ccc(Cl)c(S(=O)(=O)F)c2)c1', 'no'),
  ('COc1cc(C=Nc2cc(Cl)cc(Cl)c2)ccc1N(CCCl)CCCl', 'no'),
  ('CCC(C)(C)[C@H](NC(=O)[C@H]1CCCCN1C)C(=O)N(C)[C@H](C[C@@H](OC(C)=O)c1nc(C(=O)N[C@@H](Cc2ccccc2)C[C@H](C)C(=O)O)cs1)C(C)C', 'yes');

----------
# System: SNB-19 CNS
# method-notes: NCI-60 one-dose screen, 48 h
# experimental-context: 10 µM unless noted
About 83,000 compounds went through this panel and 20% of them were active in at least one assay; those are over-represented in the sample as a whole. Active and inactive are the calls of the source. The calls were made as follows: active = growth percent below 10; inactive = the rest.
Possible outcomes: YES = active, NO = inactive

INSERT INTO assay_data (molecule, category_label) VALUES
  ('CC(C)=CCC[C@H](C(=O)O)[C@@H]1CC[C@]2(C)C3=C(CC[C@@]12C)[C@@]1(C)CC[C@H](O)C(C)(C)[C@@H]1CC3', 'NO'),
  ('COC(=O)[C@H](Cc1c[nH]c2ccccc12)NC(=O)[C@@H](OC)[C@@H]1Cc2cc3cc(OC4CC(OC5CC(O)C(O)C(C)O5)C(O)C(C)O4)c(C)c(O)c3c(O)c2C(=O)[C@H]1OC1CC(OC2CC(OC3CC(C)(O)C(O)C(C)O3)C(O)C(C)O2)C(O)C(C)O1 (some centres not stated)', 'YES'),
  ('Clc1ccc(CSC(Cn2ccnc2)c2ccc(Cl)cc2Cl)cc1 (configuration not stated)', 'NO'),
  ('COc1ccc(/C=C\c2cc(OC)c(OC)c(OC)c2)cc1NS(=O)(=O)c1ccc(Cl)cc1', 'NO'),
  ('Oc1ccc2c3c1OC1[C@@H](O)CC[C@@]4(O)[C@@H](C2)N(CC2CCC2)CC[C@]314 (some centres not stated)', 'NO'),
  ('CC(=O)OCC1O[C@@H]([S-])C(OC(C)=O)[C@H](OC(C)=O)[C@@H]1OC(C)=O.[Au+].c1ccc(CN2[CH-]N(Cc3ccccc3)C(c3ccccc3)=C2c2ccccc2)cc1', 'NO'),
  ('COc1ccc(/C=C\c2cc(OC)c(OC)c(OC)c2)cc1NC(=O)/C=C/c1cc(OC)c(OC)c(OC)c1', 'NO');

----------
# Tested on: HCT-15 colon
# method-notes: NCI-60 one-dose screen, 48 h (100 = growth as untreated, 0 = no growth, -100 = all killed)
# experimental-context: 10 µM unless noted
The panel holds about 83,000 compounds, 20% with a hit somewhere; the sample as a whole holds those more often.
Here, each record is paired with measured growth data.
result-type: growth (%)

INSERT INTO results (compound, unit_annotation, result_value) VALUES
  ('COC(=O)N[C@H]1CCc2c(Br)c(OC)c(OC)c(OC)c2-c2ccc(SC)c(=O)cc21', '%', 7.69),
  ('CCCCCCCCOC(=O)CCN1CC1', '%', 101),
  ('Clc1ccc2nnnn2n1', '%', 24.7),
  ('CN(C)CC(C(=O)Cc1ccccc1)c1ccccc1 (stereo not given)', '%', 37.2),
  ('COc1cc2c(cc1OCCCn1c(-c3ccccn3)nc3ccccc31)N=C[C@@H]1CCCN1C2=O', '%', -22.7),
  ('CC(C)=CCc1c(O)c(C(=O)CC(C)C)c(O)c2c(-c3ccccc3)cc(=O)oc12', '%', 30.3),
  ('Cc1c2cc(Cl)c3ccccc3c2c[n+]2ccccc12', '%', 103),
  ('Oc1ccc2c3c1OC1[C@@H](O)CC[C@@]4(O)[C@@H](C2)N(CC2CCC2)CC[C@]314 (stereo not given in full)', '%', 99.2),
  ('CC12CCC3C(CCC4Cc5[nH]c6ccccc6c5CC43C)C1CCC2O (stereo not given)', '%', 33.2),
  ('COC(=O)[C@@]1(O)C[C@H]2O[C@]1(C)n1c3ccccc3c3c4c(c5c6ccccc6n2c5c31)C(=O)NC4', '%', -29.3),
  ('C[C@]12CCc3sc(-c4cccc(F)c4)nc3C1=CC[C@@H]1[C@@H]2CC[C@]2(C)C(=O)CC[C@@H]12', '%', -38.2),
  ('O=P(N1CC1)(N1CC1)N1CCc2ccccc21', '%', 115),
  ('CC(C)(C)C(=O)OCOP(=O)(OCOC(=O)C(C)(C)C)C1CCCN(O)C1=O (stereo not given)', '%', 7.4),
  ('CN1C(=O)C(=Cc2cn(CCCCCCn3c4ccccc4c(=O)c4ccccc43)c3ccccc23)C(=O)N(C)C1=O', '%', 92.1),
  ('CCOP(=O)(Nc1ccc2c(c1)/C(=N/NC(N)=S)c1ccccc1-2)OCC', '%', 96.5),
  ('Nc1ccc2c(c1)oc1ccccc12', '%', 112),
  ('O=[N+]([O-])CC(O)C(Cl)(Cl)Cl (stereo not given)', '%', 102),
  ('CC(C)OC(=O)[C@H](C)NP(=O)(Oc1ccccc1)C1CCCN(O)C1=O (stereo not given in full)', '%', 93.1),
  ('O=C1C2C(C(=O)[N]1[Hg][c]1ccccc1)C1(Cl)C(Cl)=C(Cl)C2(Cl)C1(Cl)Cl (stereo not given)', '%', -89.1),
  ('COC(=O)[C@H](Cc1ccccc1)NC(=O)c1csc([C@@H](C[C@H](C(C)C)N(C)C(=O)[C@@H](NC(=O)[C@H]2CCCCN2C)C2CC2)OC(C)=O)n1', '%', 13.1);

Reference source: PubChem BioAssay (NCI)
